Kindly supply the reported CRF1R EC50 values for the records listed here.
Subject Of Test: corticotropin releasing factor 1 receptor
Protocol: cell-based or functional assay
Ends that are not written are not given here.

Example results:
                                     binder  data_value
0  SQEPPISLDLTFGLLREVLEMTKADQLAQQAHSNRKLLDIA-NH2 [SEQ ID NO 88]      100 nM
1  ZGPPISIDLPFQLLRKMIEIEKQEKEKQQATTNRLLLDTI (C-terminal amide) [SEQ ID NO 13]     97.7 nM
2  ZGPPISIDLPQLLLRKMIEIEKQEKEKQQAANNRLLLDTI (C-terminal amide) [SEQ ID NO 196]      447 nM

Can you give me CRF1R EC50 for all of these, one by one?
1. SQEPPISLDLPTGLLREVLEMTKADQLAQQAHSNRKLLDIA-NH2 [SEQ ID NO 98]
2. ZGPPISIDLPFQLLRKMIEIEKQEKEKQQATNNRLLLDTI (C-terminal amide) [SEQ ID NO 14]
3. IVLSLDVPIGLLQILLEQAARAAREQATTNARILARV-NH2 [SEQ ID NO 135]
4. ZGPPISIDLPTILLRKMIEIEKQEKEKQQAANNRLLLDTI (C-terminal amide) [SEQ ID NO 50]
5. SQEPPISLDLPFQLLREVLEMTKADQLAQQAHSNRKLLDIA-NH2 [SEQ ID NO 91]
6. ZGPPISIDLPAHLLRKMIEIEKQEKEKQQAANNRLLLDTI (C-terminal amide) [SEQ ID NO 206]
7. ZGPPISIDLPSYLLRKMIEIEKQEKEKQQAANNRLLLDTI (C-terminal amide) [SEQ ID NO 56]

Result:
["100 nM", "109 nM", "> 100 nM", "> 1000 nM", "100 nM", "696 nM", "> 100 nM"]

Can you give me CRF1R EC50 for all of these, one by one?
1. ZGPPISIDLPFQLLRKMIEIEKQEKEKQQATTNRLLLARV (C-terminal amide) [SEQ ID NO 19]
2. DNPSLSIDLPFILLRTLLELARTQSQRERAEQNAIIFASV-NH2 [SEQ ID NO 181]

Result:
232 nM
154 nM
